// values below are reported MIC E. coli NCTC9001
System: Escherichia coli
Assay: MIC, compound in combination with a second agent (broth microdilution)
Assay type: cell-based
Details: 1:1 (wt:wt) combination with Rifampicin; MIC = total drug concentration; strain NCTC9001
Method: To evaluate the potency and spectrum of the compounds both alone and in combination with another agent, susceptibility testing was performed against up to four strains of each of the four Gram negative pathogens, Escherichia coli, Pseudomonas aeruginosa, Klebsiella pneumoniae and Acinetobacter baumannii. Ratios of components in a combination, such as 1:1, refers to a weight to weight ratio. […]
Where a name gives a salt, the structure may show the parent alone. Bridge positions count the residues as written; N and C are the ends. Square brackets hold non-standard residues; d marks the D form. Peptide text beside a SMILES is read from it. * marks the point of attachment. ξ: configuration not given here. ξβ3hGly(cHex) = NC(CC(=O)*)C1CCCCC1; Thr(3ξ) = CC(O)[C@H](N)C(=O)O; Dab = NCC[C@H](N)C(=O)O; Dap = NC[C@H](N)C(=O)O
Expressed in micrograms/mL, but write only the number.

>>> numericreadout("CC(C)C[C@@H]1NC(=O)[C@@H](Cc2ccccc2)NC(=O)[C@H](CCN)NC(=O)[C@@H](NC(=O)[C@H](CN)NC(=O)[C@@H](NC(=O)CC(N)C2CCCCC2)C(C)O)CCNC(=O)[C@H](C(C)O)NC(=O)[C@H](CCN)NC(=O)[C@H](CCN)NC1=O (stereo partly drawn) [Example 47, TFA salt] ({ξβ3hGly(cHex)}-[Thr(3ξ)][Dap][Dab][Dab][dF]L[Dab][Dab][Thr(3ξ)]; lactam 3-C)")
0.125

Shifting focus to the molecule that follows.
What the record says about CC(C)C[C@@H]1NC(=O)[C@@H](CC(C)C)NC(=O)[C@H](CCN)NC(=O)[C@@H](NC(=O)[C@H](CCN)NC(=O)[C@@H](NC(=O)C(O)C2CCCCC2)C(C)O)CCNC(=O)[C@H](C(C)O)NC(=O)[C@H](CCN)NC(=O)[C@H](CCN)NC1=O (single isomer, unassigned; isomer 2) [Example 32] : MIC E. coli NCTC9001 is 1

* * *

// values below are reported MIC K. pneumoniae CCUG-59348
Test system: Klebsiella pneumoniae
Assay: MIC, compound in combination with a second agent (broth microdilution)
Type: cell-based
Details: 1:1 (wt:wt) combination with Rifampicin; MIC = total drug concentration; strain CCUG-59348
Where a name gives a salt, the structure may show the parent alone. Bridge positions count the residues as written; N and C are the ends. Square brackets hold non-standard residues; d marks the D form. Peptide text beside a SMILES is read from it. * marks the point of attachment. ξ: configuration not given here. Thr(3ξ) = CC(O)[C@H](N)C(=O)O; X13 = O=C(CC[C@@H]1CCCN1)*; Dab = NCC[C@H](N)C(=O)O; Dap = NC[C@H](N)C(=O)O; Inp = O=C(O)C1CCNCC1; X4 = NC1CCCC1C(=O)*
Enter the number, and then the unit.

>>> result("CC(C)C[C@@H]1NC(=O)[C@@H](Cc2ccccc2)NC(=O)[C@H](CCN)NC(=O)[C@@H](NC(=O)[C@H](CCN)NC(=O)[C@@H](NC(=O)[C@H](CCCCN)NC(=O)C2CCNCC2)C(C)O)CCNC(=O)[C@H](C(C)O)NC(=O)[C@H](CCN)NC(=O)[C@H](CCN)NC1=O (stereo partly drawn) [Example 54, trifluoroacetate salt] (H-[Inp]K[Thr(3ξ)][Dab][Dab][Dab][dF]L[Dab][Dab][Thr(3ξ)]; lactam 5-C)")
"4 micrograms/mL"

What the record says about CC(C)C[C@@H]1NC(=O)[C@@H](Cc2ccccc2)NC(=O)[C@H](CCN)NC(=O)[C@@H](NC(=O)[C@H](CCN)NC(=O)[C@@H](NC(=O)CC[C@@H]2CCCN2)C(C)O)CCNC(=O)[C@H](C(C)O)NC(=O)[C@H](CCN)NC(=O)[C@H](CCN)NC1=O (stereo partly drawn) [Example 23] (X13-[Thr(3ξ)][Dab][Dab][Dab][dF]L[Dab][Dab][Thr(3ξ)]; lactam 3-C) : MIC K. pneumoniae CCUG-59348 is 8 micrograms/mL

What the record says about CC(C)C[C@@H]1NC(=O)[C@@H](Cc2ccccc2)NC(=O)[C@H](CCN)NC(=O)[C@@H](NC(=O)[C@H](CN)NC(=O)[C@@H](NC(=O)C2CCCC2N)C(C)O)CCNC(=O)[C@H](C(C)O)NC(=O)[C@H](CCN)NC(=O)[C@H](CCN)NC1=O (stereo partly drawn) [Example 43, TFA salt] (X4-[Thr(3ξ)][Dap][Dab][Dab][dF]L[Dab][Dab][Thr(3ξ)]; lactam 3-C) : MIC K. pneumoniae CCUG-59348 is 2 micrograms/mL

* * *

// values below are reported MIC E. coli ATCC25922
Test system: Escherichia coli
Assay: MIC, sole activity (no second agent)
Format: cell-based
Details: in the absence of Rifampicin; strain ATCC25922
Structures can show the parent of a compound that is named as a salt. Numbered stars: 1 amine (or outer) side, 2 acyl side, 3 side chain; on linkers, the order of the positions; unused ones are H or OH. Bridge positions count the residues as written; N and C are the ends. Square brackets hold non-standard residues; d marks the D form. Peptide text beside a SMILES is read from it. * marks the point of attachment. ξ: configuration not given here. GABA(4S-Me) = C[C@@H](CCC(=O)[*:2])N[*:1]; Thr(3ξ) = CC(O)[C@H](N)C(=O)O; Dab = NCC[C@H](N)C(=O)O; Dap = NC[C@H](N)C(=O)O; X14 = CC(C)(N)CCC(=O)*; Ahp = NCCCCCCC(=O)O; X4 = NC1CCCC1C(=O)*

Here are 5 compounds together with their reported answers.
>>> result("CC(C)C[C@@H]1NC(=O)[C@@H](Cc2ccccc2)NC(=O)[C@H](CCN)NC(=O)[C@@H](NC(=O)[C@H](CCN)NC(=O)[C@@H](NC(=O)CCC(C)(C)N)C(C)O)CCNC(=O)[C@H](C(C)O)NC(=O)[C@H](CCN)NC(=O)[C@H](CCN)NC1=O (stereo partly drawn) [Example 21] (X14-[Thr(3ξ)][Dab][Dab][Dab][dF]L[Dab][Dab][Thr(3ξ)]; lactam 3-C)")
"4 micrograms/mL"
>>> result("CC(C)C[C@@H]1NC(=O)[C@@H](Cc2ccccc2)NC(=O)[C@H](CCN)NC(=O)[C@@H](NC(=O)[C@H](CN)NC(=O)[C@@H](NC(=O)C2CCCC2N)C(C)O)CCNC(=O)[C@H](C(C)O)NC(=O)[C@H](CCN)NC(=O)[C@H](CCN)NC1=O (stereo partly drawn) [Example 43, TFA salt] (X4-[Thr(3ξ)][Dap][Dab][Dab][dF]L[Dab][Dab][Thr(3ξ)]; lactam 3-C)")
"2 micrograms/mL"
>>> result("CC(C)C[C@@H]1NC(=O)[C@@H](Cc2ccccc2)NC(=O)[C@H](CCN)NC(=O)[C@@H](NC(=O)[C@H](CCN)NC(=O)[C@@H](NC(=O)[C@H](CCN)NC(=O)CC(N)C2CCCCC2)C(C)O)CCNC(=O)[C@H](C(C)O)NC(=O)[C@H](CCN)NC(=O)[C@H](CCN)NC1=O (mixture of isomers) [Example 39, trifluoroacetate salt]")
"2 micrograms/mL"
>>> result("CC(C)C[C@@H]1NC(=O)[C@@H](Cc2ccccc2)NC(=O)[C@H](CCN)NC(=O)[C@@H](NC(=O)[C@H](CCN)NC(=O)[C@@H](NC(=O)CC[C@H](C)N)C(C)O)CCNC(=O)[C@H](C(C)O)NC(=O)[C@H](CCN)NC(=O)[C@H](CCN)NC1=O (stereo partly drawn) [Example 24] ({GABA(4S-Me)}-[Thr(3ξ)][Dab][Dab][Dab][dF]L[Dab][Dab][Thr(3ξ)]; lactam 3-C)")
">32 micrograms/mL"
>>> result("CC(C)C[C@@H]1NC(=O)[C@@H](Cc2ccccc2)NC(=O)[C@H](CCN)NC(=O)[C@@H](NC(=O)[C@H](CCN)NC(=O)[C@@H](NC(=O)CCCCCCN)C(C)O)CCNC(=O)[C@H](C(C)O)NC(=O)[C@H](CCN)NC(=O)[C@H](CCN)NC1=O (stereo partly drawn) [Example 13, 7-Aminoheptanoyl polymyxin B nonapeptide] (H-[Ahp][Thr(3ξ)][Dab][Dab][Dab][dF]L[Dab][Dab][Thr(3ξ)]; lactam 4-C)")
"1 micrograms/mL"

What the record says about CCCCCCC(O)C(=O)N[C@H](C(=O)N[C@@H](CCN)C(=O)N[C@H]1CCNC(=O)[C@H](C(C)O)NC(=O)[C@H](CCN)NC(=O)[C@H](CCN)NC(=O)[C@H](CC(C)C)NC(=O)[C@@H](CC(C)C)NC(=O)[C@H](CCN)NC1=O)C(C)O (mixture of isomers) : MIC E. coli ATCC25922 is 8 micrograms/mL
